Target under test: sigma2 receptor (Mus musculus)
Sequence (Q8VD00 whole entry): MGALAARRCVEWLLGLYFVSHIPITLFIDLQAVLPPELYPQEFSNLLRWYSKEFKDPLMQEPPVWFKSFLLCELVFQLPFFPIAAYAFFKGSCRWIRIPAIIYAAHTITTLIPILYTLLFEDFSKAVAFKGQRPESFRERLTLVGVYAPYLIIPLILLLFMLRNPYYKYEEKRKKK
Assay info: Sigma2 receptor competition binding against [3H]DTG /
Experimental parameters: mouse lung membranes; sigma2 Ki / sigma1 Ki
Where a name gives a salt, the structure may show the parent alone.
Parameter measured: Selectivity Ki Ratio σ2/σ1

Cc1ccc2c(c1)C1CN(C)CCC1N2C(=O)CSc1nnnn1-c1ccc(Cl)cc1 (centres unmarked) ... 0.07

// for each molecule in input: emit Selectivity Ki Ratio σ2/σ1
1. COc1ccc2c(c1)[C@]13CCCC[C@@H]1[C@H](C2)N(C)CC3 [Dextromethorphan, dextromethorphan hydrobromide]
2. C=CCN1CCC2(C)c3cc(O)ccc3CC1C2C (single isomer, unassigned; (+)) [(+)-NANM, (+)-N-allylnormetazocine]
3. C=CCN1CCC2(C)c3cc(O)ccc3CC1C2C (single isomer, unassigned; (-)) [(−)-NANM, (−)-N-allylnormetazocine]
4. CC(C(O)c1ccc(O)cc1)N1CCC(Cc2ccccc2)CC1 (stereo not drawn) [Ifenprodil, ifenprodil (+)-tartrate]

[58, 1162, 2.0, 0.1]
